- system under test: human PCSK9 (proprotein convertase subtilisin kexin type 9) (human, UniProt Q8NBP7 31-692)
- Sequence (Q8NBP7 31-692 limits assumed): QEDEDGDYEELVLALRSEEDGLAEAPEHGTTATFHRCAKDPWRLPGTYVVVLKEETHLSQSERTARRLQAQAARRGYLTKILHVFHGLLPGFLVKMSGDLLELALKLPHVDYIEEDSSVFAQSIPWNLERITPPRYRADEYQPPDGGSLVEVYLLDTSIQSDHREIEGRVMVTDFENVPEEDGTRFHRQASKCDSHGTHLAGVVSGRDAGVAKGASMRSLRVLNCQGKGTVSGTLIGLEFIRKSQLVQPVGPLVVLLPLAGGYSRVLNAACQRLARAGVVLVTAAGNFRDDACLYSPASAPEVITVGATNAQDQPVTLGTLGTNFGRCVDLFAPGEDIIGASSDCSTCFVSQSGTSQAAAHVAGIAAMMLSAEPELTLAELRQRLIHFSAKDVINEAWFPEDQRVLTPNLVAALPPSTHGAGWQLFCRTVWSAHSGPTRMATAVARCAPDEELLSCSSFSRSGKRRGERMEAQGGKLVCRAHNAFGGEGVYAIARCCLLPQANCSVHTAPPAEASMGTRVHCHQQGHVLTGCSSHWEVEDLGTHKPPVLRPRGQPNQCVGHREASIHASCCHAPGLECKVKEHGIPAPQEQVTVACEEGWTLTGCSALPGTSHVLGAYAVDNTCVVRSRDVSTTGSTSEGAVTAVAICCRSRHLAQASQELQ
- protocol: cell-based or functional assay

binder: 2382C11 (designed binder) MGVSDVPRDLEVVAATPTSLLISWDAPAGGYGYYRITYGETGGNSPVQEFTVPVSKGTATISGLKPGVDYTITVYAVEYDFAGSGYYHRPISINYRTEIDKPSQHHHHHH
LDLR Depletion (% inhibition at 75 nM): 82.9%
--
binder: 2381B06 (designed binder) MGVSDVPRDLEVVAATPTSLLISWEPFSRLPGGGEYYRITYGETGGNSPLQQFTVPGSKGTATISGLKPGVDYTITVYAVEYPYPHSGYYHRPISINYRTEIDKPSQHHHHHH
LDLR Depletion (% inhibition at 75 nM): 120%
--
binder: 2381G03 (designed binder) MGVSDVPRDLEVVAATPTSLLISWEPFSRLPGGGEYYRITYGETGGNSPLQQFTVPGSKGTATISGLKPGVDYTITVYAVEFPYAHSGYYHRPISINYRTEIDKPSQHHHHHH
LDLR Depletion (% inhibition at 75 nM): 70.2%
--
binder: 2382F08 (designed binder) MGVSDVPRDLEVVAATPTSLLISWDAPAEAYGYYRITYGETGGNSPVQEFTVPVSKGTATISGLKPGVDYTITVYAVEFTYPGSGYYHRPISINYRTEIDKPSQHHHHHH
LDLR Depletion (% inhibition at 75 nM): 105%
--
binder: 2382C09 (designed binder) MGVSDVPRDLEVVAATPTSLLISWDAPAEGYGYYRITYGETGGNSPVQEFTVPVSKGTATISGLKPGVDYTITVYAVEFDFPGSGYYHRPISINYRTEIDKPSQHHHHHH
LDLR Depletion (% inhibition at 75 nM): 122%
--
binder: 1784F03 (designed binder) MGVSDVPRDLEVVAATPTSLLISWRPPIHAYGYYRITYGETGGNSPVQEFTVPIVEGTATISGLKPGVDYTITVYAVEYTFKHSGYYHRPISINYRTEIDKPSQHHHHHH
LDLR Depletion (% inhibition at 75 nM): 150%
--
binder: 1922G04 (designed binder, also called ATI001057; ATI-1057) MGVSDVPRDLEVVAATPTSLLISWRPPSHAYGYYRITYGETGGNSPVQEFTVPIGKGTATISGLKPGVDYTITVYAVEYPWKGSGYYHRPISINYRTEIDKPSQHHHHHH
LDLR Depletion (% inhibition at 75 nM): 105%
--
binder: 2381G09 (designed binder) MGVSDVPRDLEVVAATPTSLLISWDAPAGDGYGYYRITYGETGGNSPVQEFTVPVSKGTATISGLKPGVDYTITVYAVEFTFPGAGYYHRPISINYRTEIDKPSQHHHHHH
LDLR Depletion (% inhibition at 75 nM): 133%
